Measured self-cleavage values are reported for all entries that follow.
B1: HDV Ribozyme (parent)
chain: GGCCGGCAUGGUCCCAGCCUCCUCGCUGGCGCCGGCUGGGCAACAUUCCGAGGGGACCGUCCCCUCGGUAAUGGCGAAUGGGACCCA

# Variants of: B1
# assay explanation: self-cleavage, relative activity (ratio to wild type); higher = more cleavage; co-transcriptional
measured parameter: self-cleavage

G38U C75A = 0.208
C41G C64G = 0.536
C48U G74A = 0.517
A43C C58A = 0.394
C58U C61G = 0.967
G38U A83G = 0.0866
C19G U69G = 0.102
G40A C75A = 0.0831
G34A C86A = 0.0683
G39U U65C = 0.752
C33U G39A = 0.182
G1A U12G = 0.554
U27C G80A = 0.237
C3G G55A = 0.76
C18G C58G = 0
C36G G81C = 0.0656
C18U G59A = 0.896
C21G U37C = 0.0615
U23A C49U = 1.13
G17A U37A = 0.0415
C3G U27A = 0.308
C3A G55A = 0.705
